Molecular target: Phosphoethanolamine/phosphocholine phosphatase (Homo sapiens)
Assay: PubChem AID 1565
Conditions: recombinant PHOSPHO1, absorbance phosphatase assay; at 13.3 µM; stronger effect = higher value
Among all 290,000 compounds or so, about 3,200 (1.1%) were called active. Many of the other results were omitted from the sample, so actives are more common in it than they were.
quantity-kind: inhibition

Past entries and their recorded results:
- molecular-string: "CCOc1ccc(CN2CCC(n3nccc3NC(=O)C3CC3)CC2)cc1CO"
  assayed-system: "Phosphoethanolamine/phosphocholine phosphatase (Homo sapiens)"
  inhibition: "12.7% (inactive)"
- molecular-string: "COc1ccc(C(=O)CSc2nnc(COc3ccccc3)n2Cc2ccco2)cc1"
  assayed-system: "Phosphoethanolamine/phosphocholine phosphatase (Homo sapiens)"
  inhibition: "91.7% (active)"
- molecular-string: "C/C(=N\\N(C)C)c1ccc(OCCOc2ccc([N+](=O)[O-])cc2)cc1"
  assayed-system: "Phosphoethanolamine/phosphocholine phosphatase (Homo sapiens)"
  inhibition: "23.7% (inactive)"
- molecular-string: "O=C(Nc1ccccc1)N1CCN(C(=O)Nc2ccccc2)CC1"
  assayed-system: "Phosphoethanolamine/phosphocholine phosphatase (Homo sapiens)"
  inhibition: "15.9% (inactive)"

Notebook: O=C(CSc1nnc(-c2cccnc2)n1Cc1ccco1)c1ccc(Cl)c(Cl)c1 , inhibition read as 71.1% (active)

# inhibition of CCn1c(COc2ccccc2)nnc1SCC(=O)NCc1ccco1 = 19.2% (inactive)

----------
Target: Phosphoethanolamine/phosphocholine phosphatase (Homo sapiens)
Assay: PubChem AID 1565
Details: recombinant PHOSPHO1, absorbance phosphatase assay; at 13.3 µM; stronger effect = higher value
In all, about 290,000 compounds went through this assay and about 3,200 (1.1%) were called active. Many of the other results were omitted from the sample, so actives are more common in it than they were.
// reported inhibition for each item listed

Worked set:
- compound: "COc1ccc(CCNC(=O)CN(C)S(=O)(=O)c2ccc3nc(C)sc3c2)cc1OC"
  quantity-kind: "inhibition"
  measurement: "3.8% (inactive)"
- compound: "COc1cc(NC(=O)CN(C)S(=O)(=O)c2ccc3nc(C)sc3c2)cc(OC)c1"
  quantity-kind: "inhibition"
  measurement: "-3% (inactive)"
- compound: "O=C(Nc1cccc(Cl)c1Cl)c1ccccc1NC(=O)C1CC=CCC1C(=O)O (stereo not given)"
  quantity-kind: "inhibition"
  measurement: "12.3% (inactive)"

Reported inhibition for NC(=O)c1c(NC(=O)CSc2nc(N)cc(=O)[nH]2)sc2c1CCCC2 was 12.9% (inactive)

Entry O=C(NCc1ccccc1)c1onc(CSc2nc3ccccc3[nH]2)c1C(=O)NCc1ccccc1 ; inhibition = 15.1% (inactive)

----------
Molecular target: Phosphoethanolamine/phosphocholine phosphatase (Homo sapiens)
Assay: PubChem AID 1565
Settings: recombinant PHOSPHO1, absorbance phosphatase assay; at 13.3 µM; stronger effect = higher value
In all, about 290,000 compounds went through this assay and about 3,200 (1.1%) were called active. Only a selection was taken, and actives are over-represented in it overall.
// Criterion not met strictly below 10% in inhibition; Criterion met otherwise

Consider the worked cases shown below.
- molecule: "COc1ccccc1NC(=O)CSc1nnc(C)n1CC1CCCO1 (stereo unspecified)"
  answer-label: "Criterion not met"
- molecule: "COc1ccc(OC)c(C(C)NC(=S)Nc2ccc(S(=O)(=O)Nc3ncccn3)cc2)c1 (stereo unspecified)"
  answer-label: "Criterion met"
- molecule: "Cc1onc(-c2ccccc2)c1C(=O)NNC(=S)NC(=O)c1ccc(F)cc1"
  answer-label: "Criterion not met"
- molecule: "CC(C)C(=O)NCc1cc(-c2ccc(Cl)cc2)no1"
  answer-label: "Criterion met"
- molecule: "Clc1cccc(N=C2NN=C(c3ccc4c(c3)OCCO4)CS2)c1"
  answer-label: "Criterion met"

## Input Could you please find out whether NC(=S)c1ccc(C(N)=S)o1 has inhibition that meets 10% or exceeds it?
## Output Criterion met

## Input Quick check: does COc1ccc2[nH]c(=O)c(-c3noc(-c4ccc(F)cc4)n3)cc2c1 have inhibition greater than or equal to 10%?
## Output Criterion met

----------
Target: Phosphoethanolamine/phosphocholine phosphatase (Homo sapiens)
Assay: PubChem AID 1565
Conditions: recombinant PHOSPHO1, absorbance phosphatase assay; at 13.3 µM; stronger effect = higher value
The campaign covered roughly 290,000 compounds. About 3,200 (1.1%) were called active. The sample holds actives, similar compounds and a random draw of the others, so the mix is not that of the screen.
quantity-kind: inhibition (%)
// units = %; emit number, no label

- compound: "COc1ccc(C2/C(=C(/O)c3ccccc3)C(=O)C(=O)N2C)c(OC)c1 (stereo not drawn)"
  inhibition (%): -2.4

The compound identified as CN1CCN(/N=C/c2ccc(-c3ccc([N+](=O)[O-])cc3)o2)CC1 registered its inhibition at 17.9

inhibition in this record for COc1ccc(OCc2nnc3n2N=C(c2ccccc2)C(CC(=O)O)S3)cc1 (stereo not drawn) : -69.6

# inhibition (compound: COc1ccc(OC)c(C(=O)NC(CC(N)=O)c2ccc(N3CCC(N4CCCCC4)CC3)c([N+](=O)[O-])c2)c1 (stereo not drawn) ) is -18.6

----------
Molecular target: Phosphoethanolamine/phosphocholine phosphatase (Homo sapiens) (UniProt Q8TCT1)
Sequence (Q8TCT1 whole entry, looked up): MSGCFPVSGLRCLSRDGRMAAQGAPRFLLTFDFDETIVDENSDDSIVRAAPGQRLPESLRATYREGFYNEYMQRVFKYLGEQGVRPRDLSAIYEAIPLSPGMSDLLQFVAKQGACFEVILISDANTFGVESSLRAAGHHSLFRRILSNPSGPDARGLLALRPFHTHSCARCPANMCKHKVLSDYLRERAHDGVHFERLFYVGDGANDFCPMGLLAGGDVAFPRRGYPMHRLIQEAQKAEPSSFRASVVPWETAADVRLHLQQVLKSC
Test: PubChem AID 1565
Conditions: recombinant PHOSPHO1, absorbance phosphatase assay; at 13.3 µM; stronger effect = higher value
Out of some 290,000 compounds screened, about 3,200 (1.1%) were called active. For the sample, actives were picked, then their nearest neighbours and some compounds at random.
Entry flag: Condition met if inhibition reaches 20%; Condition not met if it does not.

Answered examples (8):
- compound: "CCc1ccc(/C=N/NC(=O)c2nnn(-c3nonc3N)c2CN2CCc3ccccc32)cc1"
  answer-label: "Condition met"
- compound: "CCCSc1nc2sc3c(c2c(=O)n1-c1ccc(OC)cc1)CCN(C)C3"
  answer-label: "Condition met"
- compound: "Cc1ccc(NC(=O)CN2C(=O)NC(C)(c3ccc(Cl)cc3)C2=O)c(Br)c1 (centres undefined)"
  answer-label: "Condition met"
- compound: "COc1cccc(NC(C)=[N+](C)CCNS(=O)(=O)c2ccc(Cl)cc2)c1"
  answer-label: "Condition not met"
- compound: "CNC(=O)C1CCN(S(=O)(=O)c2c(C)noc2/C=C/c2cccc(C)c2)CC1"
  answer-label: "Condition met"
- compound: "COc1cccc(CNC(=O)c2cccnc2Sc2ccc(Cl)cc2)c1"
  answer-label: "Condition met"
- compound: "CC(C)CCNC(=O)c1ccc2c(Cl)c3c(nc2c1)CCC3"
  answer-label: "Condition met"
- compound: "CCOC(=O)C1=C(C)Nc2sc(C(=O)c3ccc(Br)cc3)c(N)c2C1c1ccc(C(=O)OC)cc1 (centres undefined)"
  answer-label: "Condition met"

## Input Test whether the compound Nc1ccc(-c2nnc(-c3ccccc3)o2)cc1 records inhibition of 20% or higher.
## Output Condition not met

----------
Biological target: Phosphoethanolamine/phosphocholine phosphatase (Homo sapiens)
Test: PubChem AID 1565
Conditions: recombinant PHOSPHO1, absorbance phosphatase assay; at 13.3 µM
In all, about 290,000 compounds went through this assay and about 3,200 (1.1%) were called active. Rule as the data show it: active = inhibition above about 60%; inactive = the rest. The list comes from a sample in which actives are over-represented; it also holds close analogues and randomly drawn compounds.
Thanks in advance; please answer with one of these: yes (1) = active, no (0) = inactive

The following molecules have reported results that may help.
- molecule: "O=C(CNC(=O)c1ccc(-c2ccccc2)cc1)OCc1ccc(Cl)cc1"
  answer-label: "no (0)"
- molecule: "Cc1cc(S(=O)(=O)NCc2ccccn2)c(Cl)cc1Cl"
  answer-label: "no (0)"
- molecule: "O=C(COc1ccc(Cl)cc1Cl)NCCCNC(=O)c1cnccn1"
  answer-label: "no (0)"

## Input Dear colleague, could you share the recorded outcome for O=C(C1CCCN(S(=O)(=O)c2ccc([N+](=O)[O-])cc2)C1)N1CCCCC1 (stereo not drawn) when you have a moment?
## Output no (0)

## Input # fetch the recorded call for Cc1cc(C)cc(NC(=O)C2CCCN2S(=O)(=O)c2cccc3cccnc23)c1 (stereo not drawn) here
## Output no (0)

## Input Could you please tell me the result logged for CCOc1ccc(NC(=O)CCC(=O)NNC(=O)NC2CCCCC2)cc1 in this assay?
## Output no (0)

## Input What outcome does the record of this test show for Cn1c(CNC(=O)c2ccccc2F)nnc1SCc1ccc(F)cc1 ?
## Output no (0)

## Input Test call for this molecule, please: CC(C)[C@H](NC(=O)N1CCn2c1nc1ccccc12)C(=O)NC1CC1
## Output no (0)

## Input For N#Cc1ccccc1S(=O)(=O)N1CCN(C(=O)c2cc(-c3ccccc3)nn2-c2ccccc2)CC1 , which call appears in the assay record?
## Output no (0)

----------
The entries below come with measured inhibition values attached.
Biological target: Phosphoethanolamine/phosphocholine phosphatase (Homo sapiens) (UniProt Q8TCT1)
Assay: PubChem AID 1565
Conditions: recombinant PHOSPHO1, absorbance phosphatase assay; at 13.3 µM; stronger effect = higher value
About 3,200 (1.1%) of roughly 290,000 compounds were called active. Many of the other results were omitted from the sample, so actives are more common in it than they were.

Examples with answers:
- compound: "Cc1ccc(S(=O)(=O)N2CCN=C2SCc2c(F)cccc2Cl)cc1"
  measurement: "22.6% (inactive)"
- compound: "CCOC(=O)N1CCN(CCC(=O)Nc2ccccc2)CC1"
  measurement: "44.4% (inactive)"
- compound: "Cc1ccnc(NC(=O)C(C)N2C(=O)c3ccccc3C2=O)c1 (stereo unspecified)"
  measurement: "60% (active)"
- compound: "O=C(Cn1c(NCCO)nc2ccccc21)c1ccc(Cl)cc1Cl"
  measurement: "23.3% (inactive)"
- compound: "Cc1cc(NC(=O)CSc2nc3c(cc2C#N)CCCCC3)no1"
  measurement: "56% (inactive)"
- compound: "COc1ccc(C2CC(=O)NC(=O)C2)cc1"
  measurement: "22.9% (inactive)"

Would you kindly look at the next entry?
GET /value?item= CCc1nnc(NC(=O)CSCc2cc(=O)n3cc(C)sc3n2)s1 &field=inhibition returns 6.8% (inactive)
